This collection of values is drawn from ChEMBL document CHEMBL1687833.

Below is a list of entries, each paired with its recorded kcat/Km value.
tested on: Pseudomonas aeruginosa; experiment: Ratio of Kcat to Km for Pseudomonas aeruginosa strain PS 297 metallo-beta-lactamase IMP18 expressed in Escherichia coli BL21(DE3) assessed as substrate hydrolysis using 100 uM nitrocefin
API: value field is a number in ×10⁵ /M/s; no unit string.

Previously resolved entries follow.
INSERT INTO measurements (compound, experimental_target, assay_readout, measured_result) VALUES
  ('CC(C)(O/N=C(\C(=O)N[C@@H]1C(=O)N2C(C(=O)[O-])=C(C[n+]3ccccc3)CS[C@H]12)c1csc(N)n1)C(=O)O [CEFTAZIDIME]', 'Pseudomonas aeruginosa', 'kcat/Km', 7.7),
  ('CC1(C)S[C@@H]2[C@H](NC(=O)[C@H](C(=O)O)c3ccsc3)C(=O)N2[C@H]1C(=O)O [TICARCILLIN]', 'Pseudomonas aeruginosa', 'kcat/Km', 1.5),
  ('CC1(C)S[C@@H]2[C@H](NC(=O)Cc3ccccc3)C(=O)N2[C@H]1C(=O)O', 'Pseudomonas aeruginosa', 'kcat/Km', 6.2);

Let's switch to this compound now.
Which kcat/Km value belongs to CC1(C)S[C@@H]2[C@H](NC(=O)[C@H](N)c3ccccc3)C(=O)N2[C@H]1C(=O)O [AMPICILLIN] ? 6.3

###

tested on: Pseudomonas aeruginosa; test: Ratio of Kcat to Km for Pseudomonas aeruginosa strain PS 297 metallo-beta-lactamase IMP18 expressed in Escherichia coli BL21(DE3) assessed as substrate hydrolysis using 100 uM nitrocefin
In this section we review reported kcat/Km values for a set of compounds.
Just the number in ×10⁵ /M/s, nothing appended.

Example cases with answers are listed next.
INSERT INTO results (cpd_smiles, reading_unit, measured_result) VALUES
  ('CO/N=C(\C(=O)N[C@@H]1C(=O)N2C(C(=O)[O-])=C(C[N+]3(C)CCCC3)CS[C@H]12)c1csc(N)n1', '×10⁵ /M/s', 4.4),
  ('CO/N=C(\C(=O)N[C@@H]1C(=O)N2C(C(=O)O)=C(COC(C)=O)CS[C@H]12)c1csc(N)n1', '×10⁵ /M/s', 2.3);

Missing value: kcat/Km, Pseudomonas aeruginosa, entry CO/N=C(\C(=O)N[C@@H]1C(=O)N2C(C(=O)O)=C(COC(N)=O)CS[C@H]12)c1ccco1 . Fill in? 1.3

###

test system: Pseudomonas aeruginosa; assay: Activity of Pseudomonas aeruginosa strain PS 297 metallo-beta-lactamase IMP-1 expressed in Escherichia coli BL21(DE3) assessed as substrate hydrolysis using 100 uM nitrocefin
Each item that follows carries a reported log10(Km).
The common logarithm of Km in µM is what is listed.

Here's what some known entries look like.
INSERT INTO measurements (cpd_smiles, measured_result) VALUES
  ('CC1(C)S[C@@H]2[C@H](NC(=O)Cc3ccccc3)C(=O)N2[C@H]1C(=O)O', 2.72),
  ('CC1(C)S[C@@H]2[C@H](NC(=O)[C@H](N)c3ccccc3)C(=O)N2[C@H]1C(=O)O', 2.30),
  ('C[C@@H](O)[C@H]1C(=O)N2C(C(=O)O)=C(S[C@@H]3CN[C@H](C(=O)Nc4cccc(C(=O)O)c4)C3)[C@H](C)[C@H]12', 1.32),
  ('O=C(Cc1cccs1)N[C@@H]1C(=O)N2C(C(=O)O)=C(/C=C/c3ccc([N+](=O)[O-])cc3[N+](=O)[O-])CS[C@H]12', 1.43),
  ('CC(=O)OCC1=C(C(=O)O)N2C(=O)[C@@H](NC(=O)Cc3cccs3)[C@H]2SC1', 1.32);

Next item in the queue.
Hello, I am looking for reported log10(Km) with Pseudomonas aeruginosa for CC(C)(O/N=C(\C(=O)N[C@@H]1C(=O)N2C(C(=O)[O-])=C(C[n+]3ccccc3)CS[C@H]12)c1csc(N)n1)C(=O)O . Could you help? 1.64

###

We begin with a simple list: items and their reported kcat/Km.
test system: Pseudomonas aeruginosa; test: Ratio of Kcat to Km for Pseudomonas aeruginosa strain PS 297 metallo-beta-lactamase IMP-1 expressed in Escherichia coli BL21(DE3) assessed as substrate hydrolysis using 100 uM nitrocefin
Write it as a number; the unit ×10⁵ /M/s goes unstated.

INSERT INTO assay_data (molecule, reading_unit, measured_result) VALUES
  ('C[C@@H](O)[C@H]1C(=O)N2C(C(=O)O)=C(S[C@@H]3CN[C@H](C(=O)Nc4cccc(C(=O)O)c4)C3)[C@H](C)[C@H]12', '×10⁵ /M/s', 7.6);

Look up kcat/Km with Pseudomonas aeruginosa for this molecule: CC(C)(O/N=C(\C(=O)N[C@@H]1C(=O)N2C(C(=O)[O-])=C(C[n+]3ccccc3)CS[C@H]12)c1csc(N)n1)C(=O)O [CEFTAZIDIME] 1.8

Test system Pseudomonas aeruginosa; read-out kcat/Km; what value for CO/N=C(\C(=O)N[C@@H]1C(=O)N2C(C(=O)[O-])=C(C[N+]3(C)CCCC3)CS[C@H]12)c1csc(N)n1 ? 6.6

Given the entry CC1(C)S[C@@H]2[C@H](NC(=O)Cc3ccccc3)C(=O)N2[C@H]1C(=O)O , what kcat/Km was observed with Pseudomonas aeruginosa? 6.2

Entry CO/N=C(\C(=O)N[C@@H]1C(=O)N2C(C(=O)O)=C(COC(C)=O)CS[C@H]12)c1csc(N)n1 [CEFOTAXIME] , system Pseudomonas aeruginosa: what kcat/Km was measured? 3.5

Item C[C@@H](O)[C@H]1C(=O)N2C(C(=O)O)=C(S[C@@H]3CN[C@H](C(=O)N(C)C)C3)[C@H](C)[C@H]12 [MEROPENEM] with Pseudomonas aeruginosa - kcat/Km? 5

Item CCN1CCN(C(=O)N[C@@H](C(=O)N[C@@H]2C(=O)N3[C@@H]2SC(C)(C)[C@@H]3C(=O)O)c2ccccc2)C(=O)C1=O [PIPERACILLIN] with Pseudomonas aeruginosa - kcat/Km? 7.2

###

test system: Pseudomonas aeruginosa; assay: Activity of Pseudomonas aeruginosa strain PS 297 metallo-beta-lactamase IMP-18 expressed in Escherichia coli BL21(DE3) assessed as substrate hydrolysis using 100 uM nitrocefin
log10 kcat values, listed per item
Please interpret these as log10 of kcat where kcat is in s⁻¹.

Param item = CC(=O)OCC1=C(C(=O)O)N2C(=O)[C@@H](NC(=O)Cc3cccs3)[C@H]2SC1 ; retrieve measured log10 kcat. -0.40

Which log10 kcat value belongs to C[C@@H](O)[C@H]1C(=O)N2C(C(=O)O)=C(S[C@@H]3CN[C@H](C(=O)Nc4cccc(C(=O)O)c4)C3)[C@H](C)[C@H]12 ? -1.52

Endpoint output: log10 kcat of C[C@@H](O)[C@H]1C(=O)N2C(C(=O)O)=C(S[C@@H]3CN[C@H](C(=O)N(C)C)C3)[C@H](C)[C@H]12 . Value? -1.30

Data request, read-out log10 kcat, for CC1(C)S[C@@H]2[C@H](NC(=O)Cc3ccccc3)C(=O)N2[C@H]1C(=O)O 1.73

###

test system: Pseudomonas aeruginosa; assay: Activity of Pseudomonas aeruginosa strain PS 297 metallo-beta-lactamase IMP-1 expressed in Escherichia coli BL21(DE3) assessed as substrate hydrolysis using 100 uM nitrocefin
assay.readout: kcat (s⁻¹)
API: value field is a number in s⁻¹; no unit string.

Look over these answered cases.
INSERT INTO assay_data (compound, assay_readout, reading_unit, measured_result) VALUES
  ('C[C@@H](O)[C@H]1C(=O)N2C(C(=O)O)=C(S[C@@H]3CN[C@H](C(=O)Nc4cccc(C(=O)O)c4)C3)[C@H](C)[C@H]12', 'kcat', 's⁻¹', 16),
  ('CC(C)(O/N=C(\C(=O)N[C@@H]1C(=O)N2C(C(=O)[O-])=C(C[n+]3ccccc3)CS[C@H]12)c1csc(N)n1)C(=O)O [CEFTAZIDIME]', 'kcat', 's⁻¹', 8),
  ('CO/N=C(\C(=O)N[C@@H]1C(=O)N2C(C(=O)[O-])=C(C[N+]3(C)CCCC3)CS[C@H]12)c1csc(N)n1', 'kcat', 's⁻¹', 7);

Continue with the next compound.
Value wanted: kcat (Pseudomonas aeruginosa) of entry CC1(C)S[C@@H]2[C@H](NC(=O)Cc3ccccc3)C(=O)N2[C@H]1C(=O)O 320

###

test system: Pseudomonas aeruginosa; assay: Ratio of Kcat to Km for Pseudomonas aeruginosa strain PS 297 metallo-beta-lactamase IMP18 expressed in Escherichia coli BL21(DE3) assessed as substrate hydrolysis using 100 uM nitrocefin
Recorded kcat/Km values for a group of molecules are listed next.
# number only, unit ×10⁶ /M/s dropped from output

Example entries and their recorded answers appear below.
INSERT INTO measurements (molecule, measured_result) VALUES
  ('O=C(Cc1cccs1)N[C@@H]1C(=O)N2C(C(=O)O)=C(/C=C/c3ccc([N+](=O)[O-])cc3[N+](=O)[O-])CS[C@H]12', 6.1),
  ('CC(=O)OCC1=C(C(=O)O)N2C(=O)[C@@H](NC(=O)Cc3cccs3)[C@H]2SC1', 4);

Read the next record carefully.
Quick check: kcat/Km of C[C@@H](O)[C@H]1C(=O)N2C(C(=O)O)=C(SCCNC=N)C[C@H]12 [IMIPENEM ANHYDROUS] ? 2.4
